Target: ALK2 (R206H) (Homo sapiens, UniProt Q04771, R206H)
Sequence (Q04771 21-509 R206H): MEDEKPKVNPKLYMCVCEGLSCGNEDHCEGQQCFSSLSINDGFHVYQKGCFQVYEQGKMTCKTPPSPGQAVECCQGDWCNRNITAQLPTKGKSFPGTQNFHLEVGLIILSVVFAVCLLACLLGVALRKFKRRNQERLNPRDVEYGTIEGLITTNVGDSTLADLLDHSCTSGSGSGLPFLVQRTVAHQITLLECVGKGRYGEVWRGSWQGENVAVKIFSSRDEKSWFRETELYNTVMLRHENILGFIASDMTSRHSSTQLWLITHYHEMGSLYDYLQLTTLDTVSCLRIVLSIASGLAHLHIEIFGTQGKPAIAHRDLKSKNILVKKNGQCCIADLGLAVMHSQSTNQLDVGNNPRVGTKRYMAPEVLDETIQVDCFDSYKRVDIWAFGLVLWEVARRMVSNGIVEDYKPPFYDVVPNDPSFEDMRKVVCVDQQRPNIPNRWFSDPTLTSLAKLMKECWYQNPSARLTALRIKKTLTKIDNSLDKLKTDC
Experiment: Kinase assay (33P-ATP filter-binding), ALK2 R206H
Settings: R206H mutant, 20 mM; read-out: Kinase Selectivity ALK2 (R206H, 20 mM)
IC50 values, listed per item
Field format: number, assumed nM, no unit text.

INSERT INTO results (compound, target_or_system, observed) VALUES
  ('NS(=O)(=O)c1ccc(-c2cnc3cc(-c4ccc(C5CNCCN5)cc4)ccn23)c2ccccc12 (centres unmarked)', 'ALK2 (R206H) (Homo sapiens, UniProt Q04771, R206H)', 13.2),
  ('Cc1cc(-c2cnc3cc(-c4ccc(N5CCCC6(CCCN6)C5)cc4)ccn23)c2cc(F)cc(F)c2n1 (centres unmarked)', 'ALK2 (R206H) (Homo sapiens, UniProt Q04771, R206H)', 128),
  ('CN1CCN(c2ccc(-c3ccn4c(-c5ccnc6ncccc56)cnc4c3)cc2)CC1', 'ALK2 (R206H) (Homo sapiens, UniProt Q04771, R206H)', 88.2),
  ('c1cnc2c(-c3cnc4cc(-c5ccc(C6CNCCN6)cc5)ccn34)ccnc2c1 (centres unmarked)', 'ALK2 (R206H) (Homo sapiens, UniProt Q04771, R206H)', 7.5),
  ('O=S(=O)(F)Oc1ccc(-c2cnc3cc(-c4ccc(N5CCOCC5)cc4)ccn23)c2ccccc12', 'ALK2 (R206H) (Homo sapiens, UniProt Q04771, R206H)', 15000);

Value of measured IC50 for the entry Cc1cc(-c2cnc3cc(-c4ccc(C5C[C@@H](C)N[C@@H](C)C5)cc4)ccn23)c2cc(F)cc(F)c2n1 (some centres unmarked) : 60.9

Value of measured IC50 for the entry `Cc1cc(-c2cnc3cc(-c4ccc(N5CCC6(CCNCC6)C5)cc4)ccn23)c2cc(F)cc(F)c2n1` : 2510

Value of measured IC50 for the entry c1cnc2scc(-c3cnc4cc(-c5ccc(C6CNCCN6)cc5)ccn34)c2c1 (centres unmarked) : 20.6

----------
Target: ALK2 (R206H) (Homo sapiens, UniProt Q04771, R206H)
Sequence (Q04771 21-509 R206H): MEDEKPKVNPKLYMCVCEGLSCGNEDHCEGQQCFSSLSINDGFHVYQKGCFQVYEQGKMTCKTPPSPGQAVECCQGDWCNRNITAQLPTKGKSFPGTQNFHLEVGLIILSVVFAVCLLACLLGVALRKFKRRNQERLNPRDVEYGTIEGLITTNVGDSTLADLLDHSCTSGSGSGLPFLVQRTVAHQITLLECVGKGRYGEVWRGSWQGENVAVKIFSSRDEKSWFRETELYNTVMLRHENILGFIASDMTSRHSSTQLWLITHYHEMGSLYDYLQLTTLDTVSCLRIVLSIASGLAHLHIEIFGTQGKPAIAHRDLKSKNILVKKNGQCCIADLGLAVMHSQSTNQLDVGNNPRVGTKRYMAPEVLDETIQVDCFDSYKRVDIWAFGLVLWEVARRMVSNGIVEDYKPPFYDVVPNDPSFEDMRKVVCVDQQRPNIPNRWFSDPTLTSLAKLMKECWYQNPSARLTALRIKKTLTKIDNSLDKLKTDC
Assay: Kinase assay (33P-ATP filter-binding), ALK2 R206H
Format: biochemical
Conditions: R206H mutant, 20 mM; read-out: Kinase Selectivity ALK2 (R206H, 20 mM)
pIC50: −log10 of the molar value.
quantity name: pIC50

Some compounds with recorded pIC50:
INSERT INTO measurements (compound, target_or_system, quantity_name, observed) VALUES
  ('Cc1cc(-c2cnc3cc(-c4ccc(C5COCC(C)N5)cc4)ccn23)c2cc(F)cc(F)c2n1 (stereo not drawn) [Compound 23]', 'ALK2 (R206H) (Homo sapiens, UniProt Q04771, R206H)', 'pIC50', '> 8.29'),
  ('Cc1cc(-c2cnc3cc(-c4ccc(C5COCCCN5)cc4)ccn23)c2cc(F)cc(F)c2n1 (stereo not drawn) [Compound 13]', 'ALK2 (R206H) (Homo sapiens, UniProt Q04771, R206H)', 'pIC50', '> 8.29'),
  ('Cc1cc(-c2cnc3cc(-c4ccc(C5COCC(C)N5)cc4)ccn23)c2cc(F)ccc2n1 (stereo not drawn) [Compound 20]', 'ALK2 (R206H) (Homo sapiens, UniProt Q04771, R206H)', 'pIC50', '> 8.29'),
  ('c1cc(-c2cnc3cc(-c4ccc(C5CNCCN5)cc4)ccn23)c2cccnc2c1 (stereo not drawn) [Compound 33]', 'ALK2 (R206H) (Homo sapiens, UniProt Q04771, R206H)', 'pIC50', '> 8.29'),
  ('Cc1cc(-c2cnc3cc(-c4ccc(C5COC(C)CN5)cc4)ccn23)c2cc(F)ccc2n1 (stereo not drawn) [Compound 15]', 'ALK2 (R206H) (Homo sapiens, UniProt Q04771, R206H)', 'pIC50', '> 8.29'),
  ('Cc1cc(-c2cnc3cc(-c4ccc(C5COC(C)CN5)cc4)ccn23)c2ccccc2n1 (stereo not drawn) [Compound 14]', 'ALK2 (R206H) (Homo sapiens, UniProt Q04771, R206H)', 'pIC50', '> 8.29'),
  ('Cc1cc(-c2cnc3cc(-c4ccc(N5CCC6(CCC6)CC5)cc4)ccn23)c2cc(F)cc(F)c2n1 [Compound 9]', 'ALK2 (R206H) (Homo sapiens, UniProt Q04771, R206H)', 'pIC50', '< 4.30'),
  ('Cc1cc(-c2cnc3cc(-c4ccc(N5CCC6(CCC6)C5)cc4)ccn23)c2cc(F)cc(F)c2n1 [Compound 8]', 'ALK2 (R206H) (Homo sapiens, UniProt Q04771, R206H)', 'pIC50', '< 4.30'),
  ('Cc1cc(-c2cnc3cc(-c4ccc(C5COC(C)CN5)cc4)ccn23)c2cc(F)cc(F)c2n1 (stereo not drawn) [Compound 19]', 'ALK2 (R206H) (Homo sapiens, UniProt Q04771, R206H)', 'pIC50', '> 8.29'),
  ('Cc1cc(-c2cnc3cc(-c4ccc(C5COC6(CCNCC6)CN5)cc4)ccn23)c2cc(F)cc(F)c2n1 (stereo not drawn) [Compound 16]', 'ALK2 (R206H) (Homo sapiens, UniProt Q04771, R206H)', 'pIC50', '> 8.29');

Given the compound Cc1cc(-c2cnc3cc(-c4ccc(C5COCCCN5)cc4)ccn23)c2cc(F)ccc2n1 (stereo not drawn) [Compound 10] and test system ALK2 (R206H) (Homo sapiens, UniProt Q04771, R206H), the measured pIC50 is > 8.29

Given the compound O=C1CNC(=O)C(c2ccc(-c3ccn4c(-c5cccc6ncccc56)cnc4c3)cc2)N1 (stereo not drawn) [Compound 36] and test system ALK2 (R206H) (Homo sapiens, UniProt Q04771, R206H), the measured pIC50 is > 8.29
